# Tested on: Hek293T
# experiment.summary: Primary qHTS to identify gynecologic anti-cancer compounds using libraries of approved drugs and bioactive compounds (AID 1345084); further: nearly all actives have a fitted effect of over 55% in size
# recorded.conditions: Gynecologic cancer cell panel viability, ATPlite luminescence, 48 h, control line for the selectivity index; series mostly up to 57.5 µM
Inconclusive results are not listed. Active and inactive are the calls of the source. The call rests on the fitted dose curve; in most records, active means well fitted cell-killing curve with a large enough effect; inconclusive means small, poorly fitted or top-dose-only effect, or effect the other way; inactive means flat fitted curve, though single readings scatter.

# compound, tgt, outcome
rows = [
    ("C/C=C(/COC(=O)/C(C)=C/C)C(=O)OC(CC)c1ccc(OC)c(OC)c1 (stereo not given)", "Hek293T", "inactive"),
    ("COc1ccc(/C=C/C(=O)O[C@@H]2[C@@H](O)[C@H](C)O[C@@H](O[C@H]3[C@@H]4C=CO[C@@H](O[C@H]5O[C@@H](CO)[C@H](O)[C@@H](O)[C@@H]5O)[C@@H]4[C@@]4(CO)O[C@@H]34)[C@@H]2OC(C)=O)cc1", "Hek293T", "inactive"),
    ("C=C1CCC2C(C)(C)CCC[C@]2(C)[C@H]1C/C=C(\\CO)C(=O)C(=O)O (stereo not given in full)", "Hek293T", "inactive"),
    ("CC1(C)CCC2(C(=O)OC3OC(CO)C(O)C(O)C3O)CCC3(C)C(=CCC4C5(C)CCC(O)C(C)(C(=O)O)C5CCC43C)C2C1O (stereo not given)", "Hek293T", "inactive"),
    ("C[C@H]1C(=O)N2c3ccccc3[C@@]3(O)C[C@@H]4C(=O)N[C@](C)(c5nc6ccccc6c(=O)n54)N1[C@@H]23", "Hek293T", "inactive"),
    ("C=CCC1=C[C@]2(OC)[C@H](C)[C@@H](c3ccc(O)c(OC)c3)O[C@]2(OC)CC1=O", "Hek293T", "inactive"),
    ("O=C1NC(Cc2c[nH]c3ccccc23)C(=O)NC1Cc1cnc[nH]1 (stereo not given)", "Hek293T", "inactive"),
    ("C=C(C)C(=O)O[C@H]1C[C@@](C)(O)C(=O)CC(O)/C(C)=C\\[C@H]2OC(=O)C(=C)[C@H]12 (stereo not given in full)", "Hek293T", "inactive"),
    ("CCCC(=O)O[C@@H]1[C@@H]2[C@@H](OC(C)=O)[C@]3(C)C(=O)[C@H]4[C@@H](OC(C)=O)C(C)(C)C[C@H]4[C@]3(C)C(=O)[C@@]2(OC(C)=O)C[C@@H]1C", "Hek293T", "inactive"),
    ("CC(=O)O[C@H]1CC[C@@]2(C)C(CC[C@@H](C)[C@]23Cc2c(O)cc4c(c2O3)CN([C@@H](CCC(=O)O)C(=O)O)C4=O)C1(C)C (stereo not given in full)", "Hek293T", "inactive"),
    ("COC(=O)c1cc(OC)cc(OC)c1C(=O)c1c(OC)cc2c(c1O)C1CCCC(C)(O2)O1 (stereo not given)", "Hek293T", "inactive"),
    ("CN[C@@H]1[C@H](O[C@H]2[C@H](O[C@@H]3[C@@H](O)[C@H](O)[C@@H](N=C(N)N)[C@H](O)[C@H]3N=C(N)N)O[C@@H](C)[C@]2(O)C=O)O[C@@H](CO)[C@H](O)[C@H]1O", "Hek293T", "inactive"),
    ("C=C[C@H]1CN2CC[C@H]1C[C@@H]2C(O)c1ccnc2ccc(OC)cc12 (stereo not given in full)", "Hek293T", "inactive"),
    ("COC(=O)C1=CO[C@@H](O[C@@H]2O[C@H](CO)[C@@H](O)[C@H](O)[C@H]2O)[C@@H]2C(CO)=CC[C@]12O", "Hek293T", "inactive"),
    ("CCc1c(-c2ccccc2)c(-c2ccccc2)nn1-c1ccccc1-c1cccc(OCC(=O)O)c1", "Hek293T", "inactive"),
]
